These entries and their values trace back to the supplement of paper PMC11061612.

Test system: SNU-1 (Gastric Carcinoma);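 further: after 72 h of two-drug dosing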
EXPERIMENT SUMMARY: Bliss excess, mean over the matrix (fraction); higher = more synergy
READOUT: Bliss excess
Write the value as a bare number.

>  <COMPOUND>
Cc1nc(Nc2ncc(C(=O)Nc3c(C)cccc3Cl)s2)cc(N2CCN(CCO)CC2)n1 [Dasatinib] + CC(=O)Nc1cccc(-n2c(=O)n(C3CC3)c(=O)c3c(Nc4ccc(I)cc4F)n(C)c(=O)c(C)c32)c1 [Trametinib] (first compound max 2 µM, 7x7, partner max 1 µM)

>  <MEASUREMENT TARGET>
SNU-1 (Gastric Carcinoma);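 further: after 72 h of two-drug dosing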

>  <Bliss excess>
-0.0263

$$$$

Per the records, this compound ( COc1cccc(OCCCN)c1-c1cc(Nc2cnc(C#N)cn2)n[nH]1 [Prexasertib] + CCc1c2c(nc3ccc(O)cc13)-c1cc3c(c(=O)n1C2)COC(=O)[C@]3(O)CC [SN-38] (first compound max 1 µM, 7x7, partner max 0.3 µM) ) has Bliss excess equal to -0.0357
